Recorded measurements of TI: CC50/EC50, one per entry
# System: HIV-1 NL4-3 Nanoluc-sec virus
# Type: cell-based
# run.parameters: CC50 (MT4) / EC50 (NL4-3)

Some compounds with known TI: CC50/EC50 results, for comparison:
compound	observed
CC(=O)O[C@H]1[C@@H](OC(C)=O)[C@@]2(C)[C@@H]3CC[C@H]4C(C)(C)[C@@H](OC(=O)CCC(=O)O)CC[C@@]45C[C@@]35CC[C@@]23CO[C@@]2(C(C)(C)O)CC[C@](C)(O2)[C@@H]13 [Compound 13e]	> 5.2
CC(=O)O[C@H]1[C@@H](OC(C)=O)[C@@]2(C)[C@@H]3CC[C@H]4C(C)(C)[C@@H](OC(=O)CC5(CC(=O)O)CCCC5)CC[C@@]45C[C@@]35CC[C@@]23CO[C@@]2(C(C)(C)O)CC[C@](C)(O2)[C@@H]13 [Compound 13l]	> 12.6
CC(=O)O[C@H]1[C@H](O)[C@H]([C@]2(C)CC[C@@H](C(C)(C)O)O2)[C@@]2(C)CC[C@@]34C[C@@]35CC[C@H](O[C@@H]3OC[C@@H](O)[C@H](O)[C@H]3O)C(C)(C)[C@@H]5CC[C@H]4[C@]12C [Compound 4, beesioside M]	> 8.2
CC(=O)O[C@H]1[C@@H](OC(C)=O)[C@@]2(C)[C@@H]3CC[C@H]4C(C)(C)[C@@H](O[C@@H]5OC[C@@H](O)[C@H](O)[C@H]5O)CC[C@@]45C[C@@]35CC[C@@]23CO[C@@]2(C(C)(C)O)CC[C@](C)(O2)[C@@H]13 [Compound 1, beesioside I]	> 17.2
CC(=O)O[C@H]1[C@@H](OC(C)=O)[C@@]2(C)[C@@H]3CC[C@H]4C(C)(C)[C@@H](OC(=O)CCC(C)(C)C(=O)O)CC[C@@]45C[C@@]35CC[C@@]23CO[C@@]2(C(C)(C)O)CC[C@](C)(O2)[C@@H]13 [Compound 13j]	> 104

Consider now this further compound.
// TI: CC50/EC50 value for CC(=O)O[C@H]1[C@@H](OC(C)=O)[C@@]2(C)[C@@H]3CC[C@H]4C(C)(C)[C@@H](OC(=O)COCC(=O)O)CC[C@@]45C[C@@]35CC[C@@]23CO[C@@]2(C(C)(C)O)CC[C@](C)(O2)[C@@H]13 [Compound 13m] : > 41.7
